Item-by-item account of inhibition at 50 µg/mL
Target: Human Polymorphonuclear Leukocyte Elastase (Homo sapiens, UniProt P08246)
Construct: Crude extract of human polymorphonuclear leukocytes (PMN) containing elastase activity; endogenous in cells; host or cells: human polymorphonuclear leukocytes (crude extract)
Sequence (P08246 30-267): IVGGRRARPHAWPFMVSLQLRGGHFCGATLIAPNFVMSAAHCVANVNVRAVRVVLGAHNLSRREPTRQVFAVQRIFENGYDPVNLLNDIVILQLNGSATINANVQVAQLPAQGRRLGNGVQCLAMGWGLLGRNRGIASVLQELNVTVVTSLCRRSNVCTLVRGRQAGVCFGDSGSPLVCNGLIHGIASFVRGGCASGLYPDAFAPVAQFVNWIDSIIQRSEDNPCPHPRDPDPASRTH
Test: Enzyme assay for inhibition of human PMN elastase via hydrolysis of Boc-AAPAN
Assay type: biochemical
Conditions: Conc. of compound 50 μg/ml; % decrease in ΔOD/min at 410 mμ within 2 minutes vs control; crude PMN extract

compound: C=CCCOC(=O)C1=C(COC(N)=O)CSC2N1C(=O)C2(NC(=O)Cc1cccs1)OC (centres unmarked)
inhibition at 50 µg/mL: 50%

compound: COC1(NC(=O)Cc2cccs2)C(=O)N2C(C(=O)OCC(=O)COC(=O)C(C)(C)C)=C(COC(N)=O)CSC21 (centres unmarked)
inhibition at 50 µg/mL: 37%

compound: COC1(NC(=O)CSCC#N)C(=O)N2C(C(=O)OC3OC(=O)c4ccccc43)=C(CSc3nnnn3C)CSC21 (centres unmarked)
inhibition at 50 µg/mL: 41%

compound: C=CCCOC(=O)C1=C(COC(C)=O)CSC2C(NC(=O)Cc3cccs3)C(=O)N12 (centres unmarked)
inhibition at 50 µg/mL: 56%

compound: CO[C@@]1(NC(=O)CSCC#N)C(=O)N2C(C(=O)OCOC(=O)C(C)(C)C)=C(CSc3nnnn3C)CSC21 (some centres unmarked)
inhibition at 50 µg/mL: 81%

Cited source for all entries: patent US4891370A
